Reported kon values for the following binders.
molecular target: T1, cynomolgus monkey serum albumin (cynomolgus monkey, UniProt A2V9Z4 25-608); assay: SPR (Biacore 8K), albumin immobilized on CM5 chip, 25 C, 1:1 kinetic fit
T1 construct: Bought protein, immobilized on a CM5 chip by amine coupling; also called Cyno SA
Quick reminder: number only, in M⁻¹ s⁻¹, skip the unit.

binder	measure	quantitative-readout
RLN Analog 13 (other, Single-chain fusion: VHH - (G4Q)5 L1 - RLN2 A chain (desA1-4) - L2 - RLN2 B chain (desB1)) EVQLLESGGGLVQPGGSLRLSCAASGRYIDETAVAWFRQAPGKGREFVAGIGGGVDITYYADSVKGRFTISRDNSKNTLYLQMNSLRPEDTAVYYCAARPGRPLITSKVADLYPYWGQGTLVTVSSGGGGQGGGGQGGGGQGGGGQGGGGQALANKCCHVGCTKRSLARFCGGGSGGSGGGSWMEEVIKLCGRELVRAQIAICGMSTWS	kon	1.4e+06
RLN Analog 10 (other, Single-chain fusion: RLN2 B chain (desB1) - L2 - RLN2 A chain - (PGPQ)8 L1 - VHH (C-terminal)) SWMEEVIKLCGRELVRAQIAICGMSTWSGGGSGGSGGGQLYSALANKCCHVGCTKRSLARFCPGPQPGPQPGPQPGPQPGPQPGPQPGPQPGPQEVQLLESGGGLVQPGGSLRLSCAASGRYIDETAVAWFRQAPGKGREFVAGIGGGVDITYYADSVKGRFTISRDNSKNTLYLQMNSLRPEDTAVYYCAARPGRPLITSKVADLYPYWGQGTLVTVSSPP	kon	510000
RLN Analog 6 (other, Single-chain fusion: RLN2 B chain (desB1) - L2 - RLN2 A chain - PGPQ-repeat L1 - VHH (C-terminal)) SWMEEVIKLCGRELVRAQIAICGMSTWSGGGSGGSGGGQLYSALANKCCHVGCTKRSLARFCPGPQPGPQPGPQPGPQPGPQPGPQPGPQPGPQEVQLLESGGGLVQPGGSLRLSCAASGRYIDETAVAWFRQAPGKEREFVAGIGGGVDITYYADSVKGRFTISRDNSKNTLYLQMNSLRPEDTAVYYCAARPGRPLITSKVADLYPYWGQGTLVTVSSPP	kon	430000
RLN Analog 5 (other, Single-chain fusion: RLN2 B chain (desB1) - L2 - RLN2 A chain - (G4Q)5 L1 - VHH (C-terminal)) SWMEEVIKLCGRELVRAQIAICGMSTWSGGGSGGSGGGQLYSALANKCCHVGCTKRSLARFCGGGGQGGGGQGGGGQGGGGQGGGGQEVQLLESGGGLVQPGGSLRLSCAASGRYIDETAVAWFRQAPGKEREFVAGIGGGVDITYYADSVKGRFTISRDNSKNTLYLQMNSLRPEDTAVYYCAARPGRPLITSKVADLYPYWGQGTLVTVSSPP	kon	820000
RLN Analog 9 (other, Single-chain fusion: RLN2 B chain (desB1) - L2 - RLN2 A chain - (G4Q)5 L1 - VHH (C-terminal)) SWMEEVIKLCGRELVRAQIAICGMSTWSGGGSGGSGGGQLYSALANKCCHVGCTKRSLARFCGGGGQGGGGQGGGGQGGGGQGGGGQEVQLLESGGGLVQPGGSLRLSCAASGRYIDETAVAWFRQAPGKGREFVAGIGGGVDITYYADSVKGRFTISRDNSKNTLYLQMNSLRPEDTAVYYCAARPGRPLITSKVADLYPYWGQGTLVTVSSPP	kon	1.1e+06

Lookup: Recorded kon for RLN Analog 12 (other, Single-chain fusion: VHH - (G4Q)5 L1 - RLN2 B chain (desB1) - L2 of thirteen residues - RLN2 A chain (desA1-4)) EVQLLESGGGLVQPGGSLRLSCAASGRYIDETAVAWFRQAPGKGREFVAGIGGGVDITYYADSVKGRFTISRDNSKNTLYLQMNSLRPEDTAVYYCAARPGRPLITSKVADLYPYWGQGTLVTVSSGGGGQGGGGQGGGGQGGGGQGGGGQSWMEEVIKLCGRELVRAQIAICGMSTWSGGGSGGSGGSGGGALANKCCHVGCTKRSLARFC , please?
Found: 1.5e+06

Lookup: Follow-up item: RLN Analog 11 (other, Single-chain fusion: VHH - (G4Q)5 L1 - RLN2 B chain (desB1) - L2 of thirteen residues - RLN2 A chain (desA1-4)) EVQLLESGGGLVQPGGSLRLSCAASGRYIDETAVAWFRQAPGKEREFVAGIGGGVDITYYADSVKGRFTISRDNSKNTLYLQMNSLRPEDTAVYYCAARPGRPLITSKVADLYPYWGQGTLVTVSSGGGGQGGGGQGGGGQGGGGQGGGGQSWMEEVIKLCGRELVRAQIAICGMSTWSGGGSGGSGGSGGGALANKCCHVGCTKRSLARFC
Found: 1.3e+06

Lookup: Can you check RLN Analog 1 (other) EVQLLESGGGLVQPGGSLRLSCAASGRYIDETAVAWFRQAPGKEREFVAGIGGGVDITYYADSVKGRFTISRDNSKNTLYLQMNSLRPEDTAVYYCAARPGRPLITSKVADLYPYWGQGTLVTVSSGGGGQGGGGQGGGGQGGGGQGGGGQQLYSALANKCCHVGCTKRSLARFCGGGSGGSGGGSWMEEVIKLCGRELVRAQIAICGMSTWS next?
Found: 1.1e+06

Lookup: RLN Analog 3 (other, Single-chain fusion: VHH - (G4Q)5 L1 - RLN2 B chain (desB1) - L2 - RLN2 A chain) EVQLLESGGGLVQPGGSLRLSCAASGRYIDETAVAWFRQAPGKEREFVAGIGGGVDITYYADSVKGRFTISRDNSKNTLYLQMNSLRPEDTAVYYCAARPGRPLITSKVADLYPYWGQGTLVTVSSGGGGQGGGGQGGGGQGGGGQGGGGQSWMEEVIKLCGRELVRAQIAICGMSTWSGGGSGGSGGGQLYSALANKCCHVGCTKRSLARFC ?
Found: 1.5e+06

Lookup: Continue with RLN Analog 8 (other, Single-chain fusion: VHH - (PGPQ)8 L1 - RLN2 B chain (desB1) - L2 - RLN2 A chain) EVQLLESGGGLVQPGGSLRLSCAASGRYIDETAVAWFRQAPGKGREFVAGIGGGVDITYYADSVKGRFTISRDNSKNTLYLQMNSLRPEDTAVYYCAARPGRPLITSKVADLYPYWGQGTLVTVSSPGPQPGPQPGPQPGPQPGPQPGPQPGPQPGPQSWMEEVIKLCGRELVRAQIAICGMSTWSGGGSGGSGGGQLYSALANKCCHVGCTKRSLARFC
Found: 1.9e+06
